- Test system: SW-620
- Procedure details: NCI tumour cell line growth inhibition, 48 h
Active and inactive are the calls of the source. Rule as the data show it: active = GI50 up to about 1.1 µM and inactive = higher.
Please answer using one outcome listed in 1 (yes) for active, 0 (no) for inactive

# example entries with known answers
Molecule | Group label
CCOC(=O)CSc1nc(N)c2c(-c3ccccc3)c3c(nc2n1)CCCC3 | 0 (no)
N#Cc1ccc(/C=N\N2C(=O)c3ccccc3C2=O)cc1 | 0 (no)
CC(NC(=O)C(C)C(=O)Nc1ccc(C(F)(F)F)cc1)C(N)=O (configuration not stated) | 0 (no)
O=C1Nc2ccc(Cl)cc2C(=O)N2CCC[C@@H]12 | 0 (no)
CN(C)Cc1cc(/N=N/c2ccc(Cl)cc2)ccc1O | 0 (no)

Could you now look at the following molecule, please?
In this assay, the call recorded for CCCCCC(=O)NC(=S)Nc1nnn[nH]1 was what? 0 (no)

====

- Tested on: OVCAR-3
- Procedure details: NCI tumour cell line growth inhibition, 48 h
Activity calls are given as the source filed them. Rule as the data show it: active = GI50 up to about 1.1 µM and inactive = higher.
Examples of compounds with documented GI50 follow.

Some compounds with recorded GI50:
Compound | GI50
COc1cc2ccnc3c(=C(SC)SC)c(=O)c(c1OC)c23 | 14.9 µM (inactive)
Cc1ccccc1/N=N/c1c(-c2ccccc2)nn(C(=O)CC(=O)Nc2cccc(Cl)c2)c1-c1ccccc1 | 18.5 µM (inactive)
C1=CC=C2NCCCCCC/N=C3\C=CC=CC=C3NCCc3cccc(c3)CC/N=C/2C=C1 | 27.7 µM (inactive)
COc1cc2c(cc1OC)C(=O)/C(=C/c1ccc(Cl)cc1)CC2 | > 10 µM (inactive)
Nc1ncnc2c1nc(-c1ccccc1)n2C1OC(CO)C(O)C1O (stereo not drawn) | > 100 µM (inactive)
CCCn1c(SCCSc2c3ccccc3c(-c3nc(F)nc(F)n3)n2CCC)c2ccccc2c1-c1nc(F)nc(F)n1 | > 100 µM (inactive)

// returns reported GI50 for input NC(=O)NN=C(CS)CS 23.3 µM (inactive)

State the recorded GI50 for this entry: Cc1n[n+](Cc2ccccc2)c2sc(N)nn12 > 100 µM (inactive)

Given the compound C=CC1(c2ccc(Cl)c(Cl)c2)OCCO1 , what is its reported GI50? > 100 µM (inactive)

Given the entry N=C(N)c1ccc(/N=N/c2c(O)ccc3cc(O)ccc23)cc1 , report its measured GI50. > 100 µM (inactive)

If you can, please state the reported GI50 value of COc1ccc(C)cc(O)c1=O . 31.6 µM (inactive)

Find the recorded GI50 belonging to C=CCOCCCC(=O)C(=[N+]=[N-])C(=O)OC and report it. > 100 µM (inactive)

Tell me the measured GI50 of N/N=C1/C2CN3CCN(C2)CC1(c1ccc([N+](=O)[O-])cc1)C3 , please. > 100 µM (inactive)

// GI50 lookup, key: O=C(NNC(=O)c1ccccc1Cl)c1ccccc1O 25.2 µM (inactive)

====

- Test system: SW-620
- Procedure details: NCI tumour cell line growth inhibition, 48 h
Active and inactive are the calls of the source. No stated cut-off is given here; in the data, active = GI50 up to about 1.1 µM and inactive = higher.
Endpoint label: GI50

# query: GI50 | item CCCC(=O)c1c(NOC2OC(COC(C)=O)C(OC(C)=O)C(OC(C)=O)C2OC(C)=O)nc(OC)n(C)c1=O (stereo not given) | system: SW-620 > 100 µM (inactive)

I'm curious: which GI50 was measured for COc1cc(C)cc2c(-c3c(O)cc(O)c4c3C[C@H](C)N[C@H]4C)cc(-c3cc(-c4c(O)cc(O)c5c4C[C@H](C)N[C@H]5C)c4cc(C)cc(OC)c4c3O)c(O)c12 tested on SW-620? > 100 µM (inactive)

Lab note: need GI50 for CCCCCCCCCC(=O)CC(=O)c1c(O)cc(O)cc1O on SW-620, anyone have it? 25.6 µM (inactive)

Form field - read-out: GI50; system: SW-620; submitted item: C[C@@H]1CC[C@@]2(C)OC(c3ccccc3)[C@H](CO)N2C1=O (stereo not given in full) > 100 µM (inactive)

Enter reported GI50 observed with SW-620 for CCN(CC)C(=S)N/N=C/c1cc([N+](=O)[O-])ccc1O 6.35 µM (inactive)

Return GI50 measured with SW-620 given this compound: C(=C\c1cc(CCc2nc3ccccc3[nH]2)n[nH]1)/c1ccccc1 > 100 µM (inactive)

Hi! What's the reported GI50 for N#Cc1c(N)c2c(c(-c3ccccc3)c1-c1ccccc1)C(=O)N(NC(=O)c1ccccc1)C2=O on SW-620? > 100 µM (inactive)

Please tell me: GI50 of COc1ccc(/C=C2\CCC(C)c3c2nc(N)c(C#N)c3-c2ccc(OC)c(OC)c2)cc1OC (stereo not given) , system SW-620? > 100 µM (inactive)

I'm curious: which GI50 was measured for COCCNC(=O)C1C(=O)C(=O)N(CCOC)C1=O (stereo not given) tested on SW-620? > 100 µM (inactive)

State its GI50 on SW-620: O=C(CN(c1ccccc1)c1ccccc1)n1nnc2ccccc21 30 µM (inactive)

Record lookup: for SW-620, what GI50 belongs to CCOc1cccc2cccnc12 ? > 100 µM (inactive)

====

# GI50 per record follows
- System: SK-OV-3
- Procedure details: NCI tumour cell line growth inhibition, 48 h
The source made the active and inactive calls. Cut-off read from the data, not from the text of the source: active = GI50 up to about 1.1 µM and inactive = higher.

Example entries begin here.
Molecule | GI50
Cc1cc(N=C2C=C(Br)C(=O)C(Br)=C2)cc(CN(CC(=O)O)CC(=O)O)c1O | > 100 µM (inactive)
CC(=O)NC(CCCNCc1ccccc1)C(=O)NCc1ccccc1 (stereo not given) | > 100 µM (inactive)
CC(=O)Nc1ccc(/C=c2\sc3nnc(CCC(=O)Nc4ccccc4Cl)n3c2=O)cc1 | > 100 µM (inactive)

Provide value of GI50 for this record tested with SK-OV-3: Cc1cc2nc(N3C(=O)/C(=C/Cc4ccco4)N=C3c3ccccc3)sc2cc1C 92 µM (inactive)

GET /values?readout=GI50&system=SK-OV-3&item= CCCCCC(=O)NC(=S)Nc1nnn[nH]1 > 100 µM (inactive)

# get_value(readout= GI50, system= SK-OV-3) for CNc1ncnc2c1ncn2C1C=CC(COS(N)(=O)=O)C1 (stereo not given) > 100 µM (inactive)

Form entry - test system: SK-OV-3; read-out: GI50; molecule: CCCCOP(=O)(OCCCC)/C(C#N)=C/c1ccco1 > 100 µM (inactive)

Observed GI50 on SK-OV-3 for CCOc1ccccc1NC(=O)CC(C(=O)OC)C(=O)C(=O)OC (stereo not given) , please. > 100 µM (inactive)

For the record Cc1ccc(N(O)C(C)(C)C)cc1 , what value of GI50 is listed for SK-OV-3? > 100 µM (inactive)

What reported GI50 corresponds to COc1ccc(-n2nnc3c(C#N)c(-c4ccccc4)c(C)n3c2=O)cc1 on SK-OV-3? > 100 µM (inactive)

Provide value of GI50 for this record tested with SK-OV-3: Fc1c(F)c(C(F)(F)F)c(F)c(F)c1N/N=C\c1c[nH]c2ccccc12 1.39 µM (inactive)

Lab note: need GI50 with SK-OV-3 for entry Nc1c(S(N)(=O)=O)cc(S(N)(=O)=O)cc1S(N)(=O)=O , please look it up. > 100 µM (inactive)

Notebook: pull reported GI50 for SK-OV-3, entry COc1ccc2nc(C(=O)c3ccccc3)c(C)cc2c1 3.83 µM (inactive)

# query: GI50 | item COc1cc2ccc(=O)oc2cc1O | system: SK-OV-3 94.2 µM (inactive)

Lab request: please report GI50 under test system SK-OV-3 for C=C1C(=O)O[C@H]2[C@H]1[C@H](OC(=O)/C(C)=C\C)CC(=C)[C@@H]1[C@H](O)[C@H]3O[C@@]3(C)[C@@]12O > 100 µM (inactive)

Find the measured GI50: item CN(C)C(=O)CO/N=C1/C(=C2/C(=O)Nc3ccccc32)Nc2ccccc21 , target or system SK-OV-3. > 100 µM (inactive)

GI50 of COC(=O)c1csnn1 on SK-OV-3? > 100 µM (inactive)

Lab request: please report GI50 under test system SK-OV-3 for N#Cc1ccc(Sc2ccccc2)cc1C#N 54 µM (inactive)

Report GI50 for COc1ncc(C=C(C#N)C#N)c(OC)n1 tested on SK-OV-3. > 100 µM (inactive)

Given the entry Cc1cc(N(CCC#N)CCC#N)ccc1/C=N/NC(=O)c1ccccc1 , what GI50 was observed with SK-OV-3? 18.5 µM (inactive)

Provide value of GI50 for this record tested with SK-OV-3: Cn1c(=O)c2c(nc3sc4nc5ccccc5nc4n32)n(C)c1=O > 100 µM (inactive)

// fetch SK-OV-3 GI50 for [N-]=[N+]=Nc1cc(=O)[nH]c2ccccc12 85.3 µM (inactive)

Could you share what GI50 was measured for O=c1ncccn1[C@@H]1O[C@H](CO)[C@@H](O)[C@@H]1F , tested on SK-OV-3? > 100 µM (inactive)
